log reduction at 5 µg/mL: recorded values
tested on: HSV-1 (Miyama strain); experiment: In vitro antiviral action on cells infected with HSV-1 (Miyama strain), CPE inhibition, TCID50; type: cell-based, Herpes simplex virus type 1; details: Human alphaherpesvirus 1; 5 μg/ml; GMK cells; read-out: Antiviral Activity (ΔTCID50)
Number, no unit, nothing else.

Structure notation	Subject of test	log reduction at 5 µg/mL
COc1ccccc1N1CCN(C(=O)[C@@]2(C)CC[C@]3(C)CC[C@]4(C)C(=CC[C@@H]5[C@@]6(C)CC[C@H](OC(=O)/C=C\C(=O)O)C(C)(C)[C@@H]6CC[C@]54C)[C@@H]3C2)CC1	HSV-1 (Miyama strain)	2.1

Kindly review the next molecule as well.
query: State its log reduction at 5 µg/mL for this molecule: CC1(C)[C@@H](OCC(=O)O)CC[C@]2(C)[C@H]3CC=C4[C@@H]5C[C@@](C)(C(=O)O)CC[C@]5(C)CC[C@@]4(C)[C@]3(C)CC[C@@H]12
result: 0.3

Sourced from patent US5356880A
